- System: Micrococcus flavus
- protocol.details: Antibacterial activity against Micrococcus flavus ATCC 10240 after 24 hrs by iodonitrotetrazolium chloride dye based microdilution method
- Type: functional
- test.parameters: ATCC 10240, 24 h
experimental.readout: MIC (µM)
Give the quantity in µM, number only.

>>> measurement("COc1cc2c(c([N+](=O)[O-])c1)NC(C)(C)c1ssc(=S)c1-2")
132
>>> measurement("COc1cc2c3c(c1)-c1c(ssc1=S)C(C)(C)N3C(=O)/C2=C1\\SC(=S)NC1=O")
96.9
>>> measurement("CN[C@@H]1[C@H](O[C@H]2[C@H](O[C@H]3[C@H](O)[C@@H](O)[C@H](N=C(N)N)[C@@H](O)[C@@H]3N=C(N)N)O[C@@H](C)[C@]2(O)C=O)O[C@@H](CO)[C@H](O)[C@H]1O")
86
>>> measurement("Cc1ccc2c(c1)-c1c(ssc1=S)C(C)(C)N2C(=O)c1cccnc1")
12.1
>>> measurement("CCOc1ccc2c(c1)-c1c(ssc1=S)C(C)(C)N2C(=O)c1ccc(Cl)c([N+](=O)[O-])c1")
30.4
>>> measurement("Cc1ccc2c(c1)-c1c(ssc1=S)C(C)(C)N2C(=O)CSc1nn(-c2ccccc2)c(=S)s1")
27.5

Input line: What value of MIC has been recorded for this entry: `CCOc1ccc2c(c1)-c1c(ssc1=S)C(C)(C)N2`
Output line: 29.5

Input line: Value lookup for MIC; key = `CC1(C)c2ssc(=S)c2-c2cccc3c2N1C(=O)/C3=N/NC(N)=S`
Output line: 38.2
